Reported pKb (Gaddum assay, cAMP) values for a set of binders
Target: T1, human GIP receptor (human, UniProt P48546 22-466)
T1 sequence (looked up): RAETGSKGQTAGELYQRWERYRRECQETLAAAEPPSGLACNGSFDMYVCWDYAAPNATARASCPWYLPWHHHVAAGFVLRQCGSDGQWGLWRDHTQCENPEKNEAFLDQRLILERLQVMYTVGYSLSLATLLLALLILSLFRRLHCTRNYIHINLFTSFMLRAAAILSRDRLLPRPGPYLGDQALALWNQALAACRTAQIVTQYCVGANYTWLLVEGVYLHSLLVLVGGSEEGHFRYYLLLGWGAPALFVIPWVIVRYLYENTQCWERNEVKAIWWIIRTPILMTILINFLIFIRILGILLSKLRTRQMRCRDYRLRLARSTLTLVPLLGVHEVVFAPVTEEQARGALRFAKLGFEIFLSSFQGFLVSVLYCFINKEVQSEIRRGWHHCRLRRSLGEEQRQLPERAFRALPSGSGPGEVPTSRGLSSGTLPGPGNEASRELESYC
Test: cell-based or functional assay
Starred links: 1 amine or outer side, 2 acyl side, 3 side chain; linkers in the order of their positions; H or OH if unused. Non-standard residues stand in square brackets, D forms with d. Groups on a side chain read outwards from the residue. No end group written: not given here. *: point of attachment. C18 diacid = O=C(O)CCCCCCCCCCCCCCCCC(=O)*; C16 diacid = O=C(O)CCCCCCCCCCCCCCC(=O)*; γGlu = O=C(O)[C@H](CCC(=O)[*:2])N[*:1]; Glutaryl = O=C(CCCC(=O)[*:2])[*:1]; Suc = O=C(CCC(=O)[*:2])[*:1]; AEEA = NCCOCCOCC(=O)O; Aib = CC(C)(N)C(=O)O
Just the number, please, no unit attached.

[[record]]
binder = "Glutaryl-GTFISDYSI[Aib]MDKIK(C16 diacid)QQDFVEWLLAQKPSSGAPPPS-OH [AT715]"
val = 9.7

[[record]]
binder = "EGTFISEYSI[Aib]LEKIK([Ala-Glu-Leu-Ala-C16 diacid])QQEFVEWLLAQKPSSGAPPPS-OH [AT725]"
val = 9.2

[[record]]
binder = "EGTFISEYSIALEKIK(C16 diacid)QQEFVEWLLAQKPSSGAPPPS-OH [AT718]"
val = 9.5


stdin: Consider the binder EGTFISEYSI[Aib]LEKIK([Lys-Ala-Ala-Ala-Glu-Lys-Ala-Ala-Ala-Glu-Lys-Ala-Ala-Ala-Glu-C16 diacid])QQEFVEWLLAQKPSSGAPPPS-OH (not fully specified) [AT724] and give its measured pKb (Gaddum assay, cAMP).
stdout: 9.5

stdin: Would you kindly repeat that for EGTFISEYSIAMEKIK([AEEA-AEEA-γGlu-C18 diacid])QQEFVEWLLAQKPSSGAPPPS-OH [AT710] ?
stdout: 9.1

stdin: Would you kindly repeat that for EGTFISEYSI[Aib]MEKIK([AEEA-AEEA-γGlu-C18 diacid])QQEFVEWLLAQKPSSGAPPPS-OH [AT709] ?
stdout: 9.6

stdin: Would you kindly repeat that for Suc-GTFISEYSI[Aib]LEKIK([AEEA-AEEA-γGlu-C18 diacid])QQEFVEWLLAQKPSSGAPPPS-OH [AT752] ?
stdout: 9.3
